test system: PU.1 dependent gene expression; test: RT-qPCR of mRNA levels in BV2 PU.1-Luciferase cells (validation round 3); type: cell-based, mouse; details: 2-day treatment; further: test concentration or dose not given here
Test Readout: mRNA levels Apoe

// solved cases for mRNA levels Apoe follow
>>> print(df.to_string())
                                   molecule                  value
0  CCOc1ccc(S(=O)(=O)Nc2ccc3c(c2)c(C(C)=O)c(C)n3S(=O)(=O)c2ccc(OCC)cc2)cc1 [Compound 1A5]  1.200 multiples of 1×
1  CCOC(=O)O[C@]1(C(=O)OCCl)CC[C@H]2[C@@H]3CCC4=CC(=O)C=C[C@]4(C)[C@H]3[C@@H](O)C[C@@]21C [Loteprednol, reference compound]  1.579 multiples of 1×
2  COc1cc(NS(=O)(=O)c2ccc3c(c2)CCN3S(C)(=O)=O)cc(OC)c1 [Compound 2F5]  0.790 multiples of 1×

Q. Reported mRNA levels Apoe for CC(C)c1ccc(NC(=O)Cn2c(=O)oc3cc(S(=O)(=O)N4CCCC4)ccc32)cc1 [Compound 2A9] : what is it?
A. 0.988 multiples of 1×

Cited source for all entries: patent US20220340983A1
